Listing of recorded protein stability index by entry.
B1: RAB22A (parent)
chain: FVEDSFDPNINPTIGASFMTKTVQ

# Variants of: B1
# TEST DESCRIPTION: protein stability index of a GFP-peptide fusion (GPS, HEK-293T) (PSI 1-6); higher = more stable;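 note: lentivirally expressed fusions sorted by FACS into six bins by GFP to DsRed ratio, PSI derived from sequencing read proportions per bin multiplied by bin number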
# CONDITION LABEL: c terminus: a fixed tail appended
METRIC: protein stability index

[[record]]
mutant = "A16I"
result_number = 2.11

[[record]]
mutant = "K21D"
result_number = 2.87

[[record]]
mutant = "F18Y"
result_number = 3.08

[[record]]
mutant = "T22W"
result_number = 1.23

[[record]]
mutant = "V2Y"
result_number = 3.19

[[record]]
mutant = "S17A"
result_number = 2.18

[[record]]
mutant = "I10N"
result_number = 2.73

[[record]]
mutant = "S17N"
result_number = 2.28

[[record]]
mutant = "S17P"
result_number = 2.49

[[record]]
mutant = "F6I"
result_number = 2.56

[[record]]
mutant = "E3G"
result_number = 1.49

[[record]]
mutant = "Q24P"
result_number = 2.45

[[record]]
mutant = "M19P"
result_number = 2.62

[[record]]
mutant = "V2K"
result_number = 3.69

[[record]]
mutant = "A16Q"
result_number = 2.61

[[record]]
mutant = "Q24A"
result_number = 2.11

[[record]]
mutant = "N9K"
result_number = 1.88

[[record]]
mutant = "N11A"
result_number = 2.42

[[record]]
mutant = "E3S"
result_number = 2.8

[[record]]
mutant = "V23M"
result_number = 1.98

[[record]]
mutant = "E3C"
result_number = 1.59

[[record]]
mutant = "I14H"
result_number = 2.87

[[record]]
mutant = "K21C"
result_number = 1.56

[[record]]
mutant = "N11F"
result_number = 1.82

[[record]]
mutant = "F6T"
result_number = 2.89

[[record]]
mutant = "S17D"
result_number = 2.53

